# Test Details: Bidirectional transport of API and TMS-NLCs across cell monolayers
# Format: in vitro ADME, canine
# Condition Description: dog; MDCK; without verapamil; 10 µg/mL, 4 h, 37 °C
Readout Kind: Papp B→A at 4 h, 10 µg/mL (×10⁻⁶ cm/s)
Give your result in ×10⁻⁶ cm/s as a bare value.

Ask | Fill in: Papp B→A at 4 h, 10 µg/mL of CC[C@H]1OC(=O)C[C@@H](O)[C@H](C)[C@@H](O[C@@H]2O[C@H](C)[C@@H](O)[C@H](N(C)C)[C@H]2O)[C@@H](CCN2C[C@H](C)C[C@H](C)C2)C[C@@H](C)C(=O)/C=C/C(C)=C/[C@@H]1CO[C@@H]1O[C@H](C)[C@@H](O)[C@@H](OC)[C@H]1OC is ___
Reply | 0.53

Hello, the source for this data is paper PMC7996536, in case you need it.
